# Tested on: HCV NS3/4A 1b protease wild type (Hepatitis C virus genotype 1b, UniProt Q9WMX2)
# Construct: 10× stocks of NS3/4A protease enzyme from Bioenza (Mountain View, Calif.); purchased Bioenza (Mountain View, Calif.)
# Test description: HCV protease FRET assay (IC50_APP), Example 16
# Format: biochemical
Reported IC50 values follow for various compounds

Sample records with IC50:
{"Compound": "C/C=C/C(=O)OC1CC/C=C\\[C@@H]2C[C@@]2(C(=O)NS(=O)(=O)C2CC2)NC(=O)[C@@H]2C[C@@H](OC(=O)N3Cc4cccc(F)c4C3)CN2C(=O)[C@@H](NC(=O)OC(C)(C)C)CC1 (stereo partly drawn)", "Observation type": "IC50", "Readout value": "< 0.01 µM"}
{"Compound": "C=C[C@@H]1C[C@]1(NC(=O)[C@@H]1C[C@@H]2CN1C(=O)[C@H](CC(=O)C=C(C)C)NC(=O)OCC(C)(C)CC/C=C/c1cccc3c1CN(C3)C(=O)O2)C(=O)NS(=O)(=O)C1CC1", "Observation type": "IC50", "Readout value": "< 0.01 µM"}

Then there is this compound:
Q) Give its IC50 value. Item: C=C[C@@H]1C[C@]1(NC(=O)[C@@H]1CC(OC(=O)N2Cc3cccc(F)c3C2)CN1C(=O)[C@H](CC/C=C/C(=O)OC)NC(=O)OC(C)(C)C)C(=O)NS(=O)(=O)C1CC1 (stereo partly drawn)
A) < 0.01 µM
